Target: SSTR2 (Homo sapiens)
Sequence (P30874 whole entry): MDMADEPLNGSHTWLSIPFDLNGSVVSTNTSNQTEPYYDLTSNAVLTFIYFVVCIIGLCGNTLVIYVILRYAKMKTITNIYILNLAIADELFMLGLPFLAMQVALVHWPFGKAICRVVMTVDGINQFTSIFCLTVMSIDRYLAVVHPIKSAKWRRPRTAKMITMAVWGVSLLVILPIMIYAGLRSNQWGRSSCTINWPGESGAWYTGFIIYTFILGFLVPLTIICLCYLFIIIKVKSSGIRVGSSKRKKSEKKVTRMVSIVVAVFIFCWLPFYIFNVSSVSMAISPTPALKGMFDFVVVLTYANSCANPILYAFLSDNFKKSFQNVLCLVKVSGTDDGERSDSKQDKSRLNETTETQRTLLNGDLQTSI
Experiment: SSTR binding affinity by radioligand binding competition assay ([125I]-Tyr11-Somatostatin, membrane extracts)
Settings: radioligand competition, [125I]-Tyr11-Somatostatin 0.1 nM, membrane extracts; Ki from IC50 by Cheng Prusoff; read-out: SSTR2 Ki
pKi: −log10 of the molar value. Numbered stars: 1 amine (or outer) side, 2 acyl side, 3 side chain; on linkers, the order of the positions; unused ones are H or OH. Square brackets hold non-standard residues; d marks the D form. Peptide text beside a SMILES is read from it. * marks the point of attachment. X9 = O=C1CN2CCN3CCN(CC(=O)N4CC(C(=O)*)C4)CCN(CC2)CC(=O)[O][Lu]([O]1)[O]C(=O)C3; Ala(piperidin-4-yl) = O=C([C@H](CC1CCN([*:3])CC1)N[*:1])[*:2]; dTrp(βS-Me) = C[C@@H](c1c[nH]c2ccccc12)[C@@H](N)C(=O)O; NMeK = CN[C@@H](CCCCN)C(=O)O
RECORDED_ENDPOINT: pKi

Given C[C@@H](O)[C@@H]1NC(=O)[C@H](CCCCN)NC(=O)[C@@H](Cc2c[nH]c3ccccc23)NC(=O)[C@H](Cc2ccc(O)cc2)NC(=O)[C@H](CCSCC(=O)NCCOCCOCCOCCNC(=O)CN2CCN3CCN4CCN(CC2)CC(=O)[O][Lu]([O]C(=O)C3)[O]C(=O)C4)N(C)C(=O)[C@H](Cc2ccccc2)NC1=O , respond with its pKi. > 9.00

Given C[C@@H](O)[C@@H]1NC(=O)[C@H](CC2CCNCC2)NC(=O)[C@@H]([C@@H](C)c2c[nH]c3ccccc23)NC(=O)[C@H](Cc2ccc(O)cc2)NC(=O)[C@H](CCCCNC(=O)C2CN(C(=O)CN3CCN4CCN5CCN(CC3)CC(=O)[O][Lu]([O]C(=O)C5)[O]C(=O)C4)C2)N(C)C(=O)[C@H](Cc2ccccc2)NC1=O [RB-0006455] (cyclo(F[NMeK](X9)Y[dTrp(βS-Me)][Ala(piperidin-4-yl)]T)) , respond with its pKi. 8.48 to 9.00

Source listed as patent US20250222146A1.
